target: HLA-A*02:01; test: IEDB peptide-MHC binding, purified MHC/competitive/radioactivity; bounds were set here for any values at or beyond the usual limits of such assays; conditions: source organism: Human alphaherpesvirus 1
Categories are defined by ranges of IC50, namely lower range (below 30 nM), middle range (30 nM to below 100 nM), upper range (100 nM or more)

Here are 10 sequences together with their reported answers.
VLLGAPVVV	lower range
FLSRPINTI	upper range
RLVDGVGGI	upper range
TIHCFFFAV	upper range
RMGELTAEI	middle range
SPGGFVQFV	upper range
GMHPRGVHA	upper range
FTINIAAYL	upper range
GLDEQQLDV	upper range
AMHARMAAV	lower range

Lab log: "FLTREILWA" — assign IC50 category lower range

Lab log: "SLLWLGAGV" — assign IC50 category middle range

Lab log: "FLLAKLTDI" — assign IC50 category lower range

Lab log: "LLANTVRYL" — assign IC50 category middle range

Lab log: "MILALTVAI" — assign IC50 category middle range

* * *

target: HLA-A*02:01; assay: IEDB peptide-MHC binding, purified MHC/competitive/radioactivity; bounds were set here for any values at or beyond the usual limits of such assays; details: source organism: Human alphaherpesvirus 1
measurement type: log10 IC50 (log10 of the value in nM)
Remember, log10 of IC50, in nM.

Solved entries:
KMDIDVEYL	2.17
LLLAVAVYA	1.97
RLATHLRAV	2.20
FLSTLPSDV	1.88
LLDFELACL	1.80
LLYNGAYHL	0.88
RLTGVTSLV	1.11
RLQFGPPPV	1.04
QLFEAHPNV	2.41
SLLDSLLVM	1.88

Hello, please tell me recorded log10 IC50 for this one: "FLGAGALAV" 1.90

Hello, please tell me recorded log10 IC50 for this one: "GLNGDSFRV" 1.34

Hello, please tell me recorded log10 IC50 for this one: "VTTDSVRAL" 3.73

Hello, please tell me recorded log10 IC50 for this one: "ALAPVFAFL" 0.34

* * *

molecular target: HLA-A*02:01; test: IEDB peptide-MHC binding, purified MHC/competitive/radioactivity; bounds were set here for any values at or beyond the usual limits of such assays; details: source organism: Human alphaherpesvirus 1
The label is class 1 for IC50 below 90 nM and class 0 for IC50 equal to or exceeding 90 nM.

Here are 5 sequences together with their reported answers.
LLDTGPFSA	class 0
NIGAYVVLV	class 0
TLLDFAHGL	class 1
ILSPTAPSV	class 1
ALYYSVENV	class 1

Would you kindly verify if IC50 of "RLDSLDLTL" is strictly less than 90 nM? class 0

Would you kindly verify if IC50 of "LITDDGEVV" is strictly less than 90 nM? class 0

Would you kindly verify if IC50 of "ITMGMPYAV" is strictly less than 90 nM? class 1

Would you kindly verify if IC50 of "FADTVVACV" is strictly less than 90 nM? class 1

* * *

target: HLA-A*02:01; assay: IEDB peptide-MHC binding, purified MHC/competitive/radioactivity; bounds were set here for any values at or beyond the usual limits of such assays; conditions: source organism: Human alphaherpesvirus 1
measurement type: IC50

Solved entries:
AMDSDLGSL	978 nM
VIACLLVAV	205 nM
FLASLVVLA	1.7 nM

Hello, please tell me recorded IC50 for this one: "VLCGIAWYV" 7.9 nM

Hello, please tell me recorded IC50 for this one: "LLNNYDVLV" 10 nM

Hello, please tell me recorded IC50 for this one: "AMDLVLAAV" 4.4 nM

* * *

target: HLA-A*02:01; test: IEDB peptide-MHC binding, purified MHC/competitive/radioactivity; bounds were set here for any values at or beyond the usual limits of such assays; conditions: source organism: Human alphaherpesvirus 1
The label is criterion met for IC50 below 30 nM and criterion not met for IC50 equal to or exceeding 30 nM.

Here are 10 sequences together with their reported answers.
FWMSPVFNL	criterion not met
KMSYPQFLA	criterion not met
RLTEDDFGL	criterion not met
LMPSPPMPV	criterion not met
FIPQYLSAV	criterion met
IILTLIPRL	criterion not met
IAPNASLGV	criterion not met
GLYLCVVYV	criterion not met
FMVSSIDEL	criterion met
TLLRLACEV	criterion not met

Would you kindly verify if IC50 of "VLAAGVLVV" is strictly less than 30 nM? criterion not met

Would you kindly verify if IC50 of "QLLSAVDYI" is strictly less than 30 nM? criterion not met

Would you kindly verify if IC50 of "FLCTADAAV" is strictly less than 30 nM? criterion met

* * *

biological target: HLA-A*02:01; experiment: IEDB peptide-MHC binding, purified MHC/competitive/radioactivity; bounds were set here for any values at or beyond the usual limits of such assays; settings: source organism: Human alphaherpesvirus 1
measurement type: pIC50
Conceptually, pIC50 converts a concentration in mol/L into minus its log10.

Solved entries:
ALSPVLPPM	7.52
FIYLALLEA	7.96
LLYDLSTTA	7.37
RLDAEYWSV	7.36
SMFASCNLL	7.54
MVIACLLVA	6.78
KLCSPVFAI	8.03
VLAAVLLGA	7.28
LLAVAVYAV	8.24
GMRGLVLAT	5.44

Hello, please tell me recorded pIC50 for this one: "RMFGMPTAL" 8.26

Hello, please tell me recorded pIC50 for this one: "QLLADFPEA" 6.88

Hello, please tell me recorded pIC50 for this one: "ALMRGRPGL" 5.78

Hello, please tell me recorded pIC50 for this one: "ALGMRGLVL" 6.31

Hello, please tell me recorded pIC50 for this one: "VTFDTLFMV" 8.06

Hello, please tell me recorded pIC50 for this one: "FVVWALLGL" 6.71

* * *

target: HLA-A*02:01; test: IEDB peptide-MHC binding, purified MHC/competitive/radioactivity; bounds were set here for any values at or beyond the usual limits of such assays; conditions: source organism: Human alphaherpesvirus 1
Reported IC50 is given for each of the following sequences.
Kindly provide the numeric value in nM only, without the unit symbol.

Hello, please tell me recorded IC50 for this one: "WLLQITVLL" 130

Hello, please tell me recorded IC50 for this one: "FLNQANCKI" 458

Hello, please tell me recorded IC50 for this one: "RLMNDWAEV" 24

Hello, please tell me recorded IC50 for this one: "LLLVRAYWL" 63

Hello, please tell me recorded IC50 for this one: "AVGELLAPV" 84

Hello, please tell me recorded IC50 for this one: "TMRDDLPLV" 61

Hello, please tell me recorded IC50 for this one: "FLSDSEAEA" 2.6

Hello, please tell me recorded IC50 for this one: "TISKPSEAV" 4780

Hello, please tell me recorded IC50 for this one: "FMTALVLSL" 0.8

Hello, please tell me recorded IC50 for this one: "LLGGVMAAV" 25

Hello, please tell me recorded IC50 for this one: "MLCGFSPAL" 8.5

Hello, please tell me recorded IC50 for this one: "FAFRYVNRL" 122

Hello, please tell me recorded IC50 for this one: "LLVEVLREI" 1.6

Hello, please tell me recorded IC50 for this one: "EMADTFLDT" 1770

Hello, please tell me recorded IC50 for this one: "GILTVVWTA" 2.1

* * *

molecular target: HLA-A*02:01; test: IEDB peptide-MHC binding, purified MHC/competitive/radioactivity; bounds were set here for any values at or beyond the usual limits of such assays; conditions: source organism: Human alphaherpesvirus 1
Reported log10 IC50 is given for each of the following sequences.
Remember, log10 of IC50, in nM.

Solved entries:
MQFVDRFVV	2.32
FLGDDPSPA	1.11
LMFDPRALA	2.88
FVADVQHAA	3.89
FLVPGTHVA	1.65

Hello, please tell me recorded log10 IC50 for this one: "VLGAAVYAL" 2.00

Hello, please tell me recorded log10 IC50 for this one: "IIWGELFGV" 0.36

Hello, please tell me recorded log10 IC50 for this one: "SLYDVEFDA" 0.99

Hello, please tell me recorded log10 IC50 for this one: "LLSNTLAEL" 0.71

Hello, please tell me recorded log10 IC50 for this one: "QLLDPPAAV" 2.27

Hello, please tell me recorded log10 IC50 for this one: "LLANNPPPV" 1.38

Hello, please tell me recorded log10 IC50 for this one: "RLLGFADTV" 1.43

Hello, please tell me recorded log10 IC50 for this one: "VLNTLMFMV" 1.15

* * *

target: HLA-A*02:01; assay: IEDB peptide-MHC binding, purified MHC/competitive/radioactivity; bounds were set here for any values at or beyond the usual limits of such assays; settings: source organism: Human alphaherpesvirus 1
measurement type: IC50 (nM)
Kindly provide the numeric value in nM only, without the unit symbol.

Solved entries:
FITTMAPRV	32
LLLHSLTPL	6.9

Would you kindly look at the next entry?
Hello, please tell me recorded IC50 for this one: "MLLATREYV" 46
